This section presents substances with their documented target mRNA knockdown values.
- PROTOCOL_CONDITIONS: siRNA; also: test system not given here
HELM strings list units from the 5' end as sugar, base in round brackets, then linkage (d deoxyribose, r ribose, m 2'-O-methyl, p phosphodiester). Strings are as the collection lists them, not checked against the first reports. ss, as = sense and antisense strand
Express the result in % but write the number alone.

>  <SUBSTANCE>
RNA1{m(G)p.m(C)p.m(A)p.m(G)p.m(C)p.m(A)p.m(C)p.m(G)p.m(A)p.m(C)p.m(U)p.m(U)p.m(C)p.m(U)p.m(U)p.m(C)p.m(A)p.m(A)p.m(G)p.r(T)p.r(T)}|RNA2{r(C)p.r(U)p.r(U)p.r(G)p.r(A)p.r(A)p.r(G)p.r(A)p.r(A)p.r(G)p.r(U)p.r(C)p.r(G)p.r(U)p.r(G)p.r(C)p.r(U)p.r(G)p.r(C)p.r(T)p.r(T)}$$$RNA1{StrandType:ss}|RNA2{StrandType:as}$

>  <UNIT_LABEL>
%

>  <MEASUREMENT>
25

$$$$
>  <SUBSTANCE>
RNA1{m(A)p.r(A)p.m(G)p.r(G)p.m(A)p.r(G)p.m(A)p.r(U)p.m(C)p.r(A)p.m(A)p.r(C)p.m(A)p.r(U)p.m(U)p.r(U)p.m(U)p.r(C)p.m(A)p.r(T)p.r(T)}|RNA2{m(U)p.r(G)p.m(A)p.r(A)p.m(A)p.r(A)p.m(U)p.r(G)p.m(U)p.r(U)p.m(G)p.r(A)p.m(U)p.r(C)p.m(U)p.r(C)p.m(C)p.r(U)p.m(U)p.r(T)p.r(T)}$$$RNA1{StrandType:ss}|RNA2{StrandType:as}$

>  <UNIT_LABEL>
%

>  <MEASUREMENT>
75

$$$$
>  <SUBSTANCE>
RNA1{m(G)p.r(G)p.m(U)p.r(A)p.m(G)p.r(A)p.m(A)p.r(U)p.m(A)p.r(G)p.m(G)p.r(U)p.m(U)p.r(U)p.m(U)p.r(C)p.m(C)p.r(C)p.m(C)p.r(T)p.r(T)}|RNA2{r(G)p.r(G)p.r(G)p.r(G)p.r(A)p.r(A)p.r(A)p.r(A)p.r(C)p.r(C)p.r(U)p.r(A)p.r(U)p.r(U)p.r(C)p.r(U)p.r(A)p.r(C)p.r(C)p.r(T)p.r(T)}$$$RNA1{StrandType:ss}|RNA2{StrandType:as}$

>  <UNIT_LABEL>
%

>  <MEASUREMENT>
11

$$$$
>  <SUBSTANCE>
RNA1{r(A)p.r(G)p.r(A)p.m(U)p.r(G)p.r(U)p.r(U)p.r(C)p.r(U)p.r(C)p.r(G)p.m(U)p.r(A)p.r(A)p.r(G)p.r(G)p.r(A)p.r(C)p.r(G)p.r(T)p.r(T)}|RNA2{r(C)p.r(G)p.r(U)p.r(C)p.r(C)p.r(U)p.m(U)p.r(A)p.r(C)p.r(G)p.r(A)p.r(G)p.r(A)p.r(A)p.m(C)p.r(A)p.r(U)p.r(C)p.r(U)p.r(T)p.r(T)}$$$RNA1{StrandType:ss}|RNA2{StrandType:as}$

>  <UNIT_LABEL>
%

>  <MEASUREMENT>
60

$$$$

// sample `RNA1{r(G)p.r(C)p.r(U)p.r(U)p.m(U)p.m(A)p.r(A)p.r(G)p.r(G)p.r(A)p.r(A)p.r(C)p.m(U)p.r(G)p.r(G)p.r(A)p.r(A)p.r(G)p.r(G)p.r(T)p.r(T)}|RNA2{r(C)p.r(C)p.r(U)p.r(U)p.r(C)p.m(C)p.r(A)p.r(G)p.r(U)p.r(U)p.r(C)p.r(C)p.r(U)p.m(U)p.m(A)p.r(A)p.r(A)p.r(G)p.r(C)p.r(T)p.r(T)}$$$RNA1{StrandType:ss}|RNA2{StrandType:as}$` , its target mRNA knockdown was 72
